Listed below: selectivity ratio values for each entry.
# method-description: Selectivity index, ratio of CC50 for African green monkey Vero cells to IC50 for epimastigote form of Trypanosoma cruzi Y
# Format: toxicity
# applied-conditions: read-out: Ratio CC50/IC50
readout: selectivity ratio

> print(dat)
                                    compound  endpoint.value
 1  COc1ccc(/C=C2\CCC/C(=C\c3ccccc3Cl)C2=O)cc1             8.9
 2  O=C1/C(=C/c2ccccc2)CCC/C1=C\c1ccccc1 [2,6-DIBENZYLIDENECYCLOHEXANONE]             2.2
 3  COc1cc(/C=C2\CCC/C(=C\c3cc(OC)c(OC)c(OC)c3)C2=O)cc(OC)c1OC            16.3
 4  O=C1/C(=C/c2c(Cl)cccc2Cl)CCC/C1=C\c1c(Cl)cccc1Cl             6.8
 5  COc1ccc(/C=C2\CCC/C(=C\c3ccc(Cl)cc3)C2=O)cc1            18.6
 6  COc1ccc(/C=C2\CCC/C(=C\c3ccccc3F)C2=O)cc1            19.8
 7  O=C1/C(=C/c2ccc(Cl)cc2)CCC/C1=C\c1ccc(Cl)cc1               2
 8  COc1cc(/C=C/C(=O)CC(=O)/C=C/c2ccc(O)c(OC)c2)ccc1O [CURCUMIN]             0.5
 9  O=C1/C(=C/c2cccc(Br)c2)CCC/C1=C\c1cccc(Br)c1             1.1
10  COc1cccc(/C=C2\CCC/C(=C\c3ccc(Br)cc3)C2=O)c1OC             0.9
11  COc1cccc(/C=C2\CCC/C(=C\c3cc(OC)c(OC)c(OC)c3)C2=O)c1OC             9.8
12  COc1ccc(/C=C2\CCC/C(=C\c3cccc(OC)c3OC)C2=O)cc1OC             1.3
13  COc1cccc(/C=C2\CCC/C(=C\c3cccc(Br)c3)C2=O)c1OC               1
14                COc1ccc(/C=C2\CCCCC2=O)cc1             3.5
15  COc1ccc(/C=C2\CCC/C(=C\c3ccc(OC)cc3)C2=O)cc1             2.8
16  COc1cccc(/C=C2\CCC/C(=C\c3ccccc3)C2=O)c1OC             1.3
17  COc1cccc(/C=C2\CCC/C(=C\c3cccc(OC)c3OC)C2=O)c1OC             1.1
18  COc1ccc(/C=C2\CCC/C(=C\c3cccc(Br)c3)C2=O)cc1             1.5
19  COc1ccc(/C=C2\CCC/C(=C\c3ccc(Br)cc3)C2=O)cc1             4.5
20  O=C1/C(=C/c2ccccc2Cl)CCC/C1=C\c1ccccc1Cl             1.1
21  COc1ccc(/C=C2\CCC/C(=C\c3ccc(F)cc3)C2=O)cc1              18
22  O=C1/C(=C/c2ccc(F)cc2)CCC/C1=C\c1ccc(F)cc1             1.4
23  COc1cccc(/C=C2\CCC/C(=C\c3c(Cl)cccc3Cl)C2=O)c1OC             6.1
24  COc1ccc(/C=C2\CCC/C(=C\c3cccc(OC)c3OC)C2=O)cc1            77.2
